Provenance of the data: the supplement of paper PMC10567573

Listing: protein stability index of selected variants
B1: EDARADD (parent)
chain: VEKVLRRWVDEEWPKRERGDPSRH

- Variants of: B1
- PROCEDURE_DETAILS: protein stability index of a GFP-peptide fusion (GPS, HEK-293T) (PSI 1-6); higher = more stable;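 also: lentivirally expressed fusions sorted by FACS into six bins by GFP to DsRed ratio, PSI derived from sequencing read proportions per bin multiplied by bin number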
- DETAILS: c terminus: a fixed tail appended
Enter the number alone.

change=D20T metric="protein stability index" value_measured=3.07
change=P14K metric="protein stability index" value_measured=2.82
change=R16E metric="protein stability index" value_measured=3.66
change=P14F metric="protein stability index" value_measured=2.14
change=V4T metric="protein stability index" value_measured=3.08

Input line: Quick check: protein stability index of R6E ?
Output line: 3.72

Input line: Quick check: protein stability index of L5G ?
Output line: 4.19

Input line: Quick check: protein stability index of K3E ?
Output line: 3.55

Input line: Quick check: protein stability index of V1R ?
Output line: 4.16

Input line: Quick check: protein stability index of P14W ?
Output line: 2.38

Input line: Quick check: protein stability index of R23V ?
Output line: 2.44

Input line: Quick check: protein stability index of R23D ?
Output line: 3.05

Input line: Quick check: protein stability index of D20S ?
Output line: 2.68
